Where do the numbers come from? From patent US20180030090A1.

# assayed.target: T1, Mdm2 (1-125) (UniProt Q00987 1-125)
# T1 construct: range 1-125; also called N-terminal domain of Mdm2; Mdm2 (1 to 125)
# T1 sequence (Q00987 1-125 limits assumed): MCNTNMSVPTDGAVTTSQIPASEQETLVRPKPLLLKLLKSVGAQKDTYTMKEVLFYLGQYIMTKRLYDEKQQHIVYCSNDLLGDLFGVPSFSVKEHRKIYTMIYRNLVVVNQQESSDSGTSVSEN
# assay: competitive fluorescence anisotropy, displacement of FAM-labelled 12-1 peptide from Mdm2 (1-125); apparent Kd
pKd: −log10 of the molar value. Bridges are numbered along the chain shown (N, C = ends). [ ]: non-standard residue; d: D form. R8 = C=CCCCCCC[C@@](C)(N)C(=O)O; S5 = C=CCCC[C@](C)(N)C(=O)O; Ahx = NCCCCCC(=O)O
measurement.kind: pKd

>>> df
                                     binder  measurement_kind  result_value
0  Ac-KK[Ahx]TSF[R8]EYWALL[S5]ENF-NH2 (staple 7-14) [YS-07 (capped), Ac-KK-Ahx-TSFX8EYWALLS5ENF-NH2]               pKd          7.61
